Tested on: NCI-H460
Assay: NCI tumour cell line growth inhibition, 48 h
Activity calls are given as the source filed them. Rule as the data show it: active = GI50 up to about 1.1 µM and inactive = higher.
Reply using exactly one outcome from active, inactive

Field: example entries. Status: answers known.
{"compound": "CC1(C)S[C@@H]2[C@H](NC(=O)C3(N)CCCCC3)C(=O)N2[C@H]1C(=O)O", "label": "inactive"}
{"compound": "CC(=O)N(CN1C(=O)CCC1C(=O)O)c1ccccc1Cl (centres undefined)", "label": "inactive"}
{"compound": "CC1=CC(=O)c2ccc(C)cc2C1=O", "label": "inactive"}
{"compound": "CC1CC2=C(C1)C(C1(C)C(=O)CC3C(C1=O)C3(C)C)C(C)C2=O (centres undefined)", "label": "inactive"}
{"compound": "O=C1OC[C@H]2[C@@H]1[C@H]1O[C@@H]2C2=C(CCC2)C1=O", "label": "inactive"}

Query: Which outcome was assigned to CC(=O)N1C(CCc2ccccc2)CC(C)(C=O)C1Cc1ccc(O[Si](C(C)C)(C(C)C)C(C)C)cc1 (centres undefined) in this test?
Result: inactive

Query: Let us now turn to O=C1NC(=O)C2=C1CCC2O (centres undefined)
Result: inactive

Query: Let us now turn to `CC1(C)CC(=O)c2c(nc3ccc4ccccc4c3c2-c2ccc(NC(=O)CCCC(=O)Nc3ccc(-c4c5c(nc6ccc7ccccc7c46)CC(C)(C)CC5=O)cc3)cc2)C1`
Result: inactive

Query: Let us now turn to `O=C1NC2(CCNCC2)Oc2ccccc21`
Result: inactive

Query: Let us now turn to `C=C(C(=C)P(=S)(c1ccccc1)c1ccccc1)P(=S)(c1ccccc1)c1ccccc1`
Result: inactive

Query: Let us now turn to `CCCCCCCCCCCCOCCCCCCCCC/C=C/c1ccc2c(c1)OCCOCCOCCOCCO2`
Result: inactive

Query: Let us now turn to `Oc1ccc(/C=N/N=c2\[nH][nH]/c(=N\N=C\c3ccc(O)cc3O)c3ccccc23)c(O)c1`
Result: active

Query: Let us now turn to `CC(=O)N1C(=O)c2cc3ccccc3cc21`
Result: inactive

Query: Let us now turn to CCN1C[C@]2(C)CC[C@H](OC)C34C5C[C@@H]6[C@@H](OC)C[C@@](OC)(C5[C@H]6OCc5ccccc5)C(C13)[C@H](OC(C)=O)[C@@H]42 (some centres undefined)
Result: inactive

* * *

System: SN12C
Assay: NCI tumour cell line growth inhibition, 48 h
The source made the active and inactive calls. No stated cut-off is given here; in the data, active = GI50 up to about 1.1 µM and inactive = higher.
Reply using exactly one outcome from class 1 for active, class 0 for inactive

{"compound": "COC(=O)c1ccc(/N=N/N(C)CO)cc1", "label": "class 0"}
{"compound": "Cc1ccc(/N=N/c2ccc(O)c(CN(C)C)c2)cc1C", "label": "class 0"}

Query: Which outcome was assigned to `O=c1oc2ccc(Cl)cc2cc1-c1cn2cc(Cl)ccc2n1` in this test?
Result: class 0

Query: Let us now turn to `COC(=O)Cn1c(=O)oc2nc(-c3ccccc3)cc(C(F)(F)F)c21`
Result: class 0

Query: Let us now turn to `Cc1c2cnccc2c(C)c2c1c1ccccc1n2CCCN`
Result: class 1

* * *

Tested on: M14
Assay: NCI tumour cell line growth inhibition, 48 h
Calls of active or inactive are those of the source. Cut-off read from the data, not from the text of the source: active = GI50 up to about 1.1 µM and inactive = higher.
Catalogue of compounds with associated GI50

{"given-smiles": "Cc1nc(O)nc(N/N=C/c2ccc(Cl)cc2)c1C(=O)NC(C)(CO)CO", "assayed-system": "M14", "GI50": "> 100 µM (inactive)"}
{"given-smiles": "Cc1cc(C)n(CCNCCn2nc(C)cc2C)n1", "assayed-system": "M14", "GI50": "> 100 µM (inactive)"}
{"given-smiles": "CCOP(=O)(OCC)/C(C#N)=C/c1cccn1C", "assayed-system": "M14", "GI50": "> 100 µM (inactive)"}
{"given-smiles": "COc1ccc(/C=C(\\C#N)c2nc(N)nc(N3N=C(C)CC3(C)C)n2)c(O)c1", "assayed-system": "M14", "GI50": "20.3 µM (inactive)"}

Now look at this one.
Query: Request - read-out GI50 | tested on M14 | compound `Cc1ccc(SCN2CCCCC2)cc1.O=C(Cl)c1ccc([N+](=O)[O-])cc1`
Result: 17.8 µM (inactive)

* * *

Test system: SNB-19
Assay: NCI tumour cell line growth inhibition, 48 h
The source made the active and inactive calls. Rule as the data show it: active = GI50 up to about 1.1 µM and inactive = higher.
Catalogue of compounds with associated GI50

Example cases with answers are listed next.
{"compound": "C=C(C(=C)P(=S)(c1ccccc1)c1ccccc1)P(=S)(c1ccccc1)c1ccccc1", "quantity-kind": "GI50", "assay-result": "> 100 µM (inactive)"}
{"compound": "COc1cccc2nc3ccccc3nc12", "quantity-kind": "GI50", "assay-result": "94.6 µM (inactive)"}
{"compound": "COc1cc2c(c(OC)c1OC)-c1ccc(SC)c(=O)cc1[C@@H](NC(=O)c1ccc(C#N)cc1)CC2", "quantity-kind": "GI50", "assay-result": "< 0.01 µM (active)"}
{"compound": "CC1=CC(=O)c2ccc(C)cc2C1=O [CHIMAPHILIN]", "quantity-kind": "GI50", "assay-result": "16.1 µM (inactive)"}
{"compound": "O=P(O)(O)CN1CCNCCN(CP(=O)(O)O)CCN(CP(=O)(O)O)CCNCC1", "quantity-kind": "GI50", "assay-result": "> 100 µM (inactive)"}
{"compound": "NCOC(=O)Cc1ccc(Br)cc1", "quantity-kind": "GI50", "assay-result": "> 100 µM (inactive)"}
{"compound": "COc1cc(Nc2cc(Cl)cc(Cl)c2)nc(N)n1", "quantity-kind": "GI50", "assay-result": "22.9 µM (inactive)"}
{"compound": "C[C@@H]1[C@@H](C)C(c2ccccc2)O[Si]1(C(C)(C)C)C(C)(C)C (some centres not stated)", "quantity-kind": "GI50", "assay-result": "13.8 µM (inactive)"}

Query: Given the entry `C/C=C(\C)c1cc(O)c(C)c2c1Oc1cc(O)c(Cl)c(C)c1C(=O)O2` , report its measured GI50.
Result: 17.3 µM (inactive)

* * *

System: ACHN
Test: NCI tumour cell line growth inhibition, 48 h
Active and inactive are the calls of the source. Rule as the data show it: active = GI50 up to about 1.1 µM and inactive = higher.
quantity-kind: GI50

Example cases with answers are listed next.
{"molecule": "COC(=O)[C@H](C)NC(=O)C1(CNC(=O)[C@H](C)NC(=O)OC(C)(C)C)Cc2ccccc2-c2ccccc2C1", "assayed-system": "ACHN", "GI50": "22.8 µM (inactive)"}
{"molecule": "O=C(O)CCN(CCC(=O)O)c1ccc(/C=C2\\SC(=S)NC2=O)cc1", "assayed-system": "ACHN", "GI50": "> 100 µM (inactive)"}
{"molecule": "CSc1ccc(OCC2OC2O)cc1 (stereo not given)", "assayed-system": "ACHN", "GI50": "40.5 µM (inactive)"}
{"molecule": "Cc1cc(S(=O)(=O)Nc2nnc3c(Cl)cc(C(F)(F)F)cn23)c(S)cc1Cl", "assayed-system": "ACHN", "GI50": "> 76.7 µM (inactive)"}

Query: Given the entry `Cn1ncc(NCCn2cnc3c2c(=O)n(C)c(=O)n3C)c(Cl)c1=O` , report its measured GI50.
Result: > 100 µM (inactive)

Query: Let us now turn to `O=C1CCCCC(=O)Nc2ccccc2N1`
Result: > 100 µM (inactive)

Query: Let us now turn to `COP(=O)(Cc1ccccc1)Cc1ccccc1`
Result: > 100 µM (inactive)

Query: Let us now turn to `Ic1cc2c(cc1C1SCCCS1)OCO2`
Result: > 100 µM (inactive)

Query: Let us now turn to `CCOC(=O)c1nc2cc(N3CCOCC3)c(F)cc2[nH]c1=O`
Result: > 100 µM (inactive)

* * *

Test system: RPMI-8226
Test: NCI tumour cell line growth inhibition, 48 h
The source made the active and inactive calls. Rule as the data show it: active = GI50 up to about 1.1 µM and inactive = higher.
quantity-kind: GI50

Example cases with answers are listed next.
{"given-smiles": "COC(=O)/C([Se]c1c(C)cc(C)cc1C)=C(/[Se]c1c(C)cc(C)cc1C)C(=O)OC", "GI50": "76 µM (inactive)"}
{"given-smiles": "Nc1nc(=O)c(/N=N/c2ccc([As](=O)(O)O)cc2)c(N)[nH]1", "GI50": "> 100 µM (inactive)"}
{"given-smiles": "CCOC(=O)/C=C/CC(C)(C)COC(C)=O", "GI50": "> 10 µM (inactive)"}

Query: Given the entry `Cc1ccc(Nc2nc(NNC(=O)Cc3ccccc3)nc(NNC(=O)c3ccncc3)n2)cc1` , report its measured GI50.
Result: > 10 µM (inactive)

Query: Let us now turn to `CCCCCCCCCCCCOCCCCCCCCC/C=C/c1ccc2c(c1)OCCOCCOCCOCCO2`
Result: 17.7 µM (inactive)

Query: Let us now turn to `CC(C)(C)c1ccc(O)c(CN(Cc2cc(C(C)(C)C)ccc2O)c2ccccc2)c1`
Result: 16.7 µM (inactive)
